- measurement notes: Critical micelle concentration (methyl orange assay)
- Type: physicochemical
- assay context: pH 7 PBS, methyl orange 0.04 mM, A484
Square brackets hold non-standard residues; d marks the D form. Ends that are not written are not given here. * marks the point of attachment. Myristoyl = CCCCCCCCCCCCCC(=O)*; Lauroyl = CCCCCCCCCCCC(=O)*; linker = not defined here; Aun = NCCCCCCCCCCC(=O)O

substance | CMC, µM
PALM-PALM-PALM-linker-SEQ ID NO:122 (SSHRTNHKKNNPKKKNKTRGSSGK; also: three palmitoyl groups and linker, attachment not placed) [Compound 129] | 0.123
Ac-Y-AUD-AUD-AUD-AUD-AUD-AUD-SEQ ID NO:122 (Ac-Y[Aun][Aun][Aun][Aun][Aun][Aun]SSHRTNHKKNNPKKKNKTRGSSGK) [Compound 132] | 0.123
MYR-linker-SEQ ID NO:122 ({Myristoyl-linker}-SSHRTNHKKNNPKKKNKTRGSSGK; reading uncertain) [Compound 127] | 0.123
MYR-SEQ ID NO:122 (Myristoyl-SSHRTNHKKNNPKKKNKTRGSSGK) [Compound 125] | 0.123
LAU-SEQ ID NO:122 (Lauroyl-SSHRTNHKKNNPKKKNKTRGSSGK) [Compound 126] | 0.37
AUD-AUD-K-AUD-AUD-AUD-AUD-SEQ ID NO:122 ([Aun][Aun]K[Aun][Aun][Aun][Aun]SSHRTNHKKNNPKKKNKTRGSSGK) [Compound 123] | 0.04

---

- measurement notes: Critical micelle concentration (methyl orange assay)
- Type: physicochemical
- assay context: pH 7 PBS, methyl orange 0.04 mM, A484
Ends that are not written are not given here.
observation type: CMC (µM)

substance | experimental value
[MYR]2-K-linker-SEQ ID NO:122 (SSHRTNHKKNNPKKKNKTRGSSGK; also: lysine bearing two myristoyl groups plus linker, attachment not placed) [Compound 128] | 0.123
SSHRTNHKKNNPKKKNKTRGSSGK [Compound 130, AUD-AUD-AUD-AUD-AUD-AUD-SEQ ID NO:122] | 0.041
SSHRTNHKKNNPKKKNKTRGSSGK [Compound 131] | 0.37
